system: T1, KRAS wild type (WT 25-mer) peptide on HLA-DQA1*05:01 / HLA-DQB1*03:01 (human)
T1 peptide: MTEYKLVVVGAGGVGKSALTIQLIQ
assay-text: cytokine release
measured-metric: binding result

4400 TCR-N (TCR, V domains shown) Valpha: GEDVEQSLFLSVREGDSSVINCTYTDSSSTYLYWYKQEPGAGLQLLTYIFSNMDMKQDQRLTVLLNKKDKHLSLRIADTQTGDSAIYFCAPGGYNKLIFGAGTRLAVHP Vbeta: DVKVTQSSRYLVKRTGEKVFLECVQDMDHENMFWYRQDPGLGLRLIYFSYDVKMKEKGDIPEGYSVSREKKERFSLILESASTNQTSMYLCASRIGNTGELFFGEGSRLTVL    no recognition
4400 TCR-E (TCR, V domains shown) Valpha: DAKTTQPPSMDCAEGRAANLPCNHSTISGNEYVYWYRQIHSQGPQYIIHGLKNNETNEMASLIITEDRKSSTLILPHATLRDTAVYYCIVRVAKSGANNLFFGTGTRLTVIP Vbeta: EADIYQTPRYLVIGTGKKITLECSQTMGHDKMYWYQQDPGMELHLIHYSYGVNSTEKGDLSSESTVSRIRTEHFPLTLESARPSHTSQYLCASSGLTYTDTQYFGPGTRLTVL    no recognition
4400 TCR-J (TCR, V domains shown) Valpha: QKEVEQDPGPLSVPEGAIVSLNCTYSNSAFQYFMWYRQYSRKGPELLMYTYSSGNKEDGRFTAQVDKSSKYISLFIRDSQPSDSATYLCAMSYSGGGADGLTFGKGTHLIIQP Vbeta: DVKVTQSSRYLVKRTGEKVFLECVQDMDHENMFWYRQDPGLGLRLIYFSYDVKMKEKGDIPEGYSVSREKKERFSLILESASTNQTSMYLCASSQGNTGELFFGEGSRLTVL    no recognition
